Each recorded value in this set is attributed to patent US12077503B2.

System: giant foxtail (Setaria faberi)
PROTOCOL_NOTES: Test G Pre-Emergence Protocol
Assay type: in vivo
CONDITION_DESCRIPTION: Setaria faberi, pre-emergence, 312 h, 15.625 g ai/ha, evaluated after 13 days, read-out: Foxtail, Giant damage rating (100=total damage to plant; 0=no damage to plant)
Text: Seeds of corn (Zea mays), giant foxtail (Setaria faberi), barnyardgrass (Echinochloa crus-galli), ivy-leaved morning glory (Ipomoea hederacea), redroot pigweed (Amaranthus retroflexus) and velvetleaf (Abutilon theophrasti) were sown in standard soil in pots. […]
For each of the molecules below, state its pest or weed control at 15.625 g/ha.
Report the figure in % without appending any unit label.

[in] Request body: readout pest or weed control at 15.625 g/ha, system giant foxtail (Setaria faberi), query CN1C[C@H](c2cc(C(C)(C)C)ncn2)[C@@H](C(=O)Nc2ccc(F)c(F)c2F)C1=O (racemic) [Compound 1668] . Return the value.
[out] 0

[in] Quick check: pest or weed control at 15.625 g/ha on giant foxtail (Setaria faberi), item CN1CC(c2ccc(C(F)(F)F)c(C(F)(F)F)c2)C(C(=O)Nc2cccc(F)c2F)C1=O (stereo not shown) [Compound 1714] ?
[out] 30

[in] Give recorded pest or weed control at 15.625 g/ha with giant foxtail (Setaria faberi) for the following molecule: CN1C[C@@H](c2ccc(C(F)(F)F)cc2)[C@H](C(=O)Nc2c[nH]nc2C(F)(F)F)C1=O (racemic) [Compound 1535]
[out] 0

[in] giant foxtail (Setaria faberi) / pest or weed control at 15.625 g/ha / CN1C[C@@H](c2ccc(C(F)(F)F)cc2)[C@H](C(=O)Nc2cn(C)nn2)C1=O (racemic) [Compound 1527] : value?
[out] 0
